koff values, listed per item
target: T1, GST-human NOGO-A56 (human); experiment: SPR (Biacore), GST-human NOGO-A56 amine-coupled to CM5, antibody flowed over, 25 C
T1 construct: Expressed in E. coli BL21 from pGEX-6P1 and purified on glutathione-sepharose; the GST tag is part of the protein in the assays; also called GST-Nogo-A 5+6; GST Nogo-A 5 + 6
T1 sequence (chain, as listed by the source limits assumed): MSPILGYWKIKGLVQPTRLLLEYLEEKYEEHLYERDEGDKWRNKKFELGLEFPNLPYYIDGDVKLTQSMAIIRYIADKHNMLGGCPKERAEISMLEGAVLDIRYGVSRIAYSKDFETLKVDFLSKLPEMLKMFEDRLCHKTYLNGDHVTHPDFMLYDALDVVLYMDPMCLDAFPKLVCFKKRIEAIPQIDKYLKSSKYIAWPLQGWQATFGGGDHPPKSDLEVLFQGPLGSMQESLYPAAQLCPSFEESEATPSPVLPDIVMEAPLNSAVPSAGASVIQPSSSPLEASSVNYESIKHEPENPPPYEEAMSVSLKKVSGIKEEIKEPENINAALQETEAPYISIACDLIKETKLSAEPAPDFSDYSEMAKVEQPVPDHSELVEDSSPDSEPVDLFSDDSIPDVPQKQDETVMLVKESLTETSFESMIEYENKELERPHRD
Return type: number; implicit unit s⁻¹.

Look over these answered cases.
[[record]]
binder = "H27L13 (antibody, human IgG1, kappa, V domains shown, IgG1 (L235A, G237A) / kappa; CAMPATH-1H signal (1-19) left out) VH: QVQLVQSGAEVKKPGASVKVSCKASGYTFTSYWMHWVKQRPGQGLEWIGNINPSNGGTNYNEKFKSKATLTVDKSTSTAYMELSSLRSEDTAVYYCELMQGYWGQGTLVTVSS VL: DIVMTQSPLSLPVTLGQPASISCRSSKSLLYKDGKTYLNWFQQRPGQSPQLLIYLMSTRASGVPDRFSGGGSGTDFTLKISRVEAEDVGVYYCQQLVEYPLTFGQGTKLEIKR"
unit_text = "s⁻¹"
reported_value = 0.00213

[[record]]
binder = "H20L16 (antibody, human IgG1, kappa, V domains shown, IgG1 (L235A, G237A) / kappa; CAMPATH-1H signal (1-19) left out) VH: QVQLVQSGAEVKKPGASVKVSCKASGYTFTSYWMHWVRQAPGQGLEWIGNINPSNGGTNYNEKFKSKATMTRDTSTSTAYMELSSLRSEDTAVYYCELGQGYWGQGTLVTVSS VL: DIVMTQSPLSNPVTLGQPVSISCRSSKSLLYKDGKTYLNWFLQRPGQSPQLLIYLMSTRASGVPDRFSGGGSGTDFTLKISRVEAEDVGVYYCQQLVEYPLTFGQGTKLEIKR"
unit_text = "s⁻¹"
reported_value = 0.00542

[[record]]
binder = "H27L16 (antibody, human IgG1, kappa, V domains shown, IgG1 (L235A, G237A) / kappa; CAMPATH-1H signal (1-19) left out; also called H27FL L16FL) VH: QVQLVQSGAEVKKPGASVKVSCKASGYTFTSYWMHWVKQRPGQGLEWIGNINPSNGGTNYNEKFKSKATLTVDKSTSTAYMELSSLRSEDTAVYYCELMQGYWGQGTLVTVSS VL: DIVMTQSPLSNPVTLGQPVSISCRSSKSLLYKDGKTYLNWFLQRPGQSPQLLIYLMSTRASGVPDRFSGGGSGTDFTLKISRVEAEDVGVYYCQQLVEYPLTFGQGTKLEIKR"
unit_text = "s⁻¹"
reported_value = 0.0015


May I ask what koff has been recorded for H16L16 (antibody, human IgG1, kappa, V domains shown, IgG1 (L235A, G237A) / kappa; CAMPATH-1H signal (1-19) left out) VH: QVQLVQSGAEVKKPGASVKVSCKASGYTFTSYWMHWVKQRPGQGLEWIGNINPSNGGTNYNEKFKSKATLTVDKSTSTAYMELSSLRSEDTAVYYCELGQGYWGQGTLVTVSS VL: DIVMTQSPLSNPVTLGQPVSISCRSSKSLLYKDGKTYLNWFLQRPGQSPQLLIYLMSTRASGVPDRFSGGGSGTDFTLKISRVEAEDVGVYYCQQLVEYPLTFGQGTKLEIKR ?
0.00372

Param item = H28L13 (antibody, human IgG1, kappa, V domains shown, IgG1 (L235A, G237A) / kappa; CAMPATH-1H signal (1-19) left out; also called H28FL L13FL) VH: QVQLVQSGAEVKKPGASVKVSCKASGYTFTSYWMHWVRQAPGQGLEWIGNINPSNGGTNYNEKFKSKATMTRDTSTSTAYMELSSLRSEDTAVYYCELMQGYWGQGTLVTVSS VL: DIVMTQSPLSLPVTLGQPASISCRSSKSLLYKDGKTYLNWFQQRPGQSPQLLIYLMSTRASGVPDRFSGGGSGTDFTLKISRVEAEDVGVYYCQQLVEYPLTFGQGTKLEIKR ; retrieve measured koff.
0.00389

So what does the record say about koff for HcLc (chimera of 2A10: murine 2A10 VH and VL with human IgG constant regions) (antibody, V domains shown, also called chimeric antibody; chimeric form of the parental antibody) VH: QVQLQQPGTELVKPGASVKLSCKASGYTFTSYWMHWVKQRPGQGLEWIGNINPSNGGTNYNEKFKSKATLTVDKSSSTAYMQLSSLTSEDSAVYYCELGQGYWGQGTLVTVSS VL: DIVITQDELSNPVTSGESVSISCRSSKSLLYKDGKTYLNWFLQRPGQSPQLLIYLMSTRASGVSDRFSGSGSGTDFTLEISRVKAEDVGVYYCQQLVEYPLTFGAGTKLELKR ?
0.00313
